# reported Ratio to SEQ ID NO: 52; entries follow
Biological target: T1, biotinylated recombinant human Fc(gamma) receptor I (human, UniProt P12314 16-288, biotinylated (site not stated))
T1 construct: Bought reagent, used as surrogate for canine/feline Fc(gamma)RI; also called rhFc(gamma) receptor I; Fc(gamma)RI
T1 sequence (P12314 16-288 limits assumed): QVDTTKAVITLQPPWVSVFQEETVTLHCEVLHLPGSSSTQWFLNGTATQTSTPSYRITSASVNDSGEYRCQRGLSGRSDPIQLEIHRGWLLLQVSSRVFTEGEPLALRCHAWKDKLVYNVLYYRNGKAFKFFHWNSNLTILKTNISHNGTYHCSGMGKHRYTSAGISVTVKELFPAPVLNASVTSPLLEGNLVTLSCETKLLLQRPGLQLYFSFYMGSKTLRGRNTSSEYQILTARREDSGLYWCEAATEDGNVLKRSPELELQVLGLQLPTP
Assay: ELISA, fusion protein coated, biotinylated rhFc(gamma)RI in solution, pH 7.4
Method: The binding of insulin-Fc fusion proteins to the Fc(gamma) receptor I at pH 7.4 was conducted using an ELISA assay as follows. […] The plate was read in an ELISA plate reader at 450 nm, and the OD values (proportional to the binding of rhFc(gamma) receptor I to insulin-Fc protein) were plotted against log concentrations of rhFc(gamma) receptor I added to each well to generate binding curves using GraphPad Prism software. […]
readout: Ratio to SEQ ID NO: 52

binder	test result
insulin-Fc fusion protein of SEQ ID NO: 60 (Fc fusion, homodimer; also called cNg-S; cNg-NB139-S) FVNQHLCGSDLVEALALVCGERGFFYTDPTGGGPRRGIVEQCCHSICSLYQLENYCNGGGGAGGGGDCPKCPAPEMLGGPSVFIFPPKPKDTLLIARTPEVTCVVVDLDPEDPEVQISWFVDGKQMQTAKTQPREEQFSGTYRVVSVLPIGHQDWLKGKQFTCKVNNKALPSPIERTISKARGQAHQPSVYVLPPSREELSKNTVSLTCLIKDFFPPDIDVEWQSNGQQEPESKYRTTPPQLDEDGSYFLYSKLSVDKSRWQRGDTFICAVMHEALHNHYTQESLSHSPG	0.24 ratio
insulin-Fc fusion protein of SEQ ID NO: 64 (Fc fusion, homodimer; also called cNg-K; cNg-NB139-K) FVNQHLCGSDLVEALALVCGERGFFYTDPTGGGPRRGIVEQCCHSICSLYQLENYCNGGGGAGGGGDCPKCPAPEMLGGPSVFIFPPKPKDTLLIARTPEVTCVVVDLDPEDPEVQISWFVDGKQMQTAKTQPREEQFKGTYRVVSVLPIGHQDWLKGKQFTCKVNNKALPSPIERTISKARGQAHQPSVYVLPPSREELSKNTVSLTCLIKDFFPPDIDVEWQSNGQQEPESKYRTTPPQLDEDGSYFLYSKLSVDKSRWQRGDTFICAVMHEALHNHYTQESLSHSPG	0.2 ratio
insulin-Fc fusion protein of SEQ ID NO: 52 (Fc fusion, Homodimer; HEK293, Protein A) FVNQHLCGSDLVEALALVCGERGFFYTDPTGGGPRRGIVEQCCHSICSLYQLENYCNGGGGAGGGGDCPKCPAPEMLGGPSVFIFPPKPKDTLLIARTPEVTCVVVDLDPEDPEVQISWFVDGKQMQTAKTQPREEQFNGTYRVVSVLPIGHQDWLKGKQFTCKVNNKALPSPIERTISKARGQAHQPSVYVLPPSREELSKNTVSLTCLIKDFFPPDIDVEWQSNGQQEPESKYRTTPPQLDEDGSYFLYSKLSVDKSRWQRGDTFICAVMHEALHNHYTQESLSHSPG	1 ratio
insulin-Fc fusion protein of SEQ ID NO: 62 (Fc fusion, homodimer; also called cNg-D; cNg-NB139-D) FVNQHLCGSDLVEALALVCGERGFFYTDPTGGGPRRGIVEQCCHSICSLYQLENYCNGGGGAGGGGDCPKCPAPEMLGGPSVFIFPPKPKDTLLIARTPEVTCVVVDLDPEDPEVQISWFVDGKQMQTAKTQPREEQFDGTYRVVSVLPIGHQDWLKGKQFTCKVNNKALPSPIERTISKARGQAHQPSVYVLPPSREELSKNTVSLTCLIKDFFPPDIDVEWQSNGQQEPESKYRTTPPQLDEDGSYFLYSKLSVDKSRWQRGDTFICAVMHEALHNHYTQESLSHSPG	0.44 ratio
